experiment: chemical genetic growth profiling, strain panel (AID 1159580);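 also: tested at 20 µM; growth read once vehicle control cultures reached saturation at 30 °C; 1 = growth at the plate median or of vehicle wells; lower values mean less growth of the strain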; details: S. cerevisiae deletion strains, growth OD, locus YHR087W, strain rtc3
Out of some 5,500 compounds screened, about 2,000 (36%) were called active. Inconclusive results (about 18%) are left out. Rule as the data show it: active = normalized growth mostly below about 0.91 (no sharp cut-off); inconclusive = no clear call, values can overlap the other calls; inactive = mostly above about 0.92. This is one part of the list.
Your reply should match one of these outcome classes. yes (active), no (inactive)

Fc1cc2n[nH]nc2cc1Cl | no
CC1C(c2ccccc2)OCCN1CN1C(=O)c2ccccc2C1=O (stereo unspecified) | no
CC(C)N(Cc1ccc(N(C)C)cc1)S(=O)(=O)c1cc(Cl)c(Cl)cc1Cl | no

Can you look up the reported call for CCC(C(=O)Nc1ccc(C(F)(F)F)cc1)c1ccccc1 (stereo unspecified) for me?
no

Consider next the compound CC(=O)c1sc(SCc2ccc(Cl)cc2)c2c1CC(C)(C)CC2=O in the same way.
no

Next: Cc1c(-c2ccnc(N)n2)nnn1-c1ccc(Cl)cc1Cl
no

Continue with COC(=O)c1cc([N+](=O)[O-])ccc1NC(C)=O
no

---

assay: chemical genetic growth profiling, strain panel (AID 1159580);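 also: tested at 20 µM; growth read once vehicle control cultures reached saturation at 30 °C; 1 = growth at the plate median or of vehicle wells; lower values mean less growth of the strain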; conditions: S. cerevisiae deletion strains, growth OD, locus YER002W, strain NOP16, stronger effect = lower value
Among all 5,500 compounds or so, about 2,000 (36%) were called active. Another 18% or so got no clear call; they are omitted. The list shows a part of the results.
Measured normalized growth, listed per entry for reference.
Format: numeric value only, no unit, no commentary.

Param item = COc1cc(C(O)CN)ccc1O (configuration not stated) ; retrieve measured normalized growth.
1.04

Let us now turn to CCCCCCCCCCCCCCCC(=O)NCCO
1.01

Proceed to CN(C)C(N)=NCCC[C@H](N)C(=O)O
0.979

Try CCCn1c(C)c(C(=O)c2ccc3ccccc3c2)c2ccccc21 next.
0.999

---

experiment: chemical genetic growth profiling, strain panel (AID 1159580);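 also: tested at 20 µM; growth read once vehicle control cultures reached saturation at 30 °C; 1 = growth at the plate median or of vehicle wells; lower values mean less growth of the strain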; details: S. cerevisiae deletion strains, growth OD, locus YGL086W, strain mad1, stronger effect = lower value
The whole screen tested about 5,500 compounds, of which about 2,000 (36%) were called active. Inconclusive results (about 18%) are left out. The list shows a part of the results.
QUANTITY KIND: normalized growth
When you answer, write just the number.

Recorded results for 3 compounds are shown here.
O=C(O)/C=C/C=C/c1ccccc1 | 0.927
O=C(O)c1cccnc1Nc1cccc(C(F)(F)F)c1 | 0.963
C=CC(C1=CC(=O)C(OC)=CC1=O)c1ccccc1 (configuration not stated) | 0.853

Recorded normalized growth for c1ccc2c3c([nH]c2c1)CNCC3 , please?
1.02

What do you have for C=CC(C1=CC(=O)C=CC1=O)c1ccccc1 (configuration not stated) ?
0.927

Please do the same for CNc1ccccc1C(=O)O as well.
0.989

Would you mind doing C=CC(C1=CC(=O)C(OC)=CC1=O)c1ccc(O)cc1 (configuration not stated) as well?
1

---

assay: chemical genetic growth profiling, strain panel (AID 1159580);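 also: tested at 20 µM; growth read once vehicle control cultures reached saturation at 30 °C; 1 = growth at the plate median or of vehicle wells; lower values mean less growth of the strain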; conditions: S. cerevisiae deletion strains, growth OD, locus YNL183C, strain NPR1, stronger effect = lower value
The campaign covered roughly 5,500 compounds. About 2,000 (36%) were called active. Inconclusive results (about 18%) are left out. The list shows a part of the results.
QUANTITY KIND: normalized growth
A bare number is all that is needed in reply.

Reference set (2 entries):
CCN(CC)CCOc1ccc2c(c1)C(=O)c1cc(OCCN(CC)CC)ccc1-2 | 0.939
CSc1ccc(/C=C(\C)[N+](=O)[O-])cc1 | 0.129

Look at this compound and give its reported normalized growth. COc1ccc(C(Cl)=C(c2ccc(OC)cc2)c2ccc(OC)cc2)cc1
0.905

One more compound: C/C(=C\c1ccc2c(c1)OCO2)[N+](=O)[O-]
0.114

And CN(C)CCOc1ccc(/C(=C(/CCCl)c2ccccc2)c2ccccc2)cc1 ?
0.85

Try this compound next: CC(=O)Nc1ccc(/C=C/[N+](=O)[O-])cc1
0.782

And CC(=O)NCCCS(=O)(=O)O ?
1

Similarly, COc1ccc(C(=O)CSC2=NCCc3ccccc32)cc1 ?
0.977

Follow-up entry: CCOc1ccc(/C=C(\C)[N+](=O)[O-])cc1OC
0.359

What do you have for CC/C(=C(\c1ccccc1)c1ccc(OCCN(C)C)cc1)c1ccccc1 ?
0.901

Same read-out for COC(=O)C[C@H]1C(C)(C)C(=O)[C@@H]2CC3=C4CC(=O)O[C@@H](c5ccoc5)[C@]4(C)CCC3[C@@]1(C)C2=O (stereo not given in full) ?
0.963

Now try CC(C)=CCC/C(C)=C/CC/C(C)=C/CC/C(C)=C/CC/C(C)=C/CC/C(C)=C/CC/C(C)=C/CC/C(C)=C/CC/C(C)=C/CO .
0.943

Another: C=CC(C)(O)CC/C=C(\C)CCC=C(C)C (stereo not given)
0.948

Now try O=C(O)c1ccccc1Nc1cccc(C(F)(F)F)c1 .
0.0159

Here is the next compound: O=C(O)c1ccccc1Nc1cccc(OCc2ccc3ccccc3n2)c1
0.981

Record: C/C=C/c1ccc2c(c1)OCO2
0.948

Now the compound CC(C)(C)c1ccc(C(O)CCCN2CCC(C(O)(c3ccccc3)c3ccccc3)CC2)cc1 (stereo not given)
0.936

Now try N#CC(C#N)=C/C=C(/Sc1ccc(F)c(Cl)c1)c1ccc(Cl)cc1 .
0.749

Consider next the compound CC(=O)Nc1ccc(S(=O)(=O)Nc2ccc([N+](=O)[O-])cc2)cc1 in the same way.
0.941

# iterate: CCN(CC)CCNC(=O)c1cc(S(C)(=O)=O)ccc1OC
0.921
